Values from ChEMBL document CHEMBL1157539

- System: HepG2
- Assay Comment: GSK_TCMDC: Percent inhibition of human HepG2 cell line. Test compounds present at 10uM.
- Type: functional
Outcome Measure: Inhibition (%)
Just the number in %, nothing appended.

Compound | Experimental Result
NC1CCN(CCNCc2cccc(-c3ccc(-c4nc5cc(C(F)(F)F)ccc5[nH]4)cc3)c2)C1.O=C(O)C(F)(F)F (centres undefined) | 19
O=C(C=Cc1ccc(Cl)c(Cl)c1)NCCCCCN1CCC(CCNC(=O)c2ccc3c(c2)OCO3)CC1 | 35
COc1ccc(NC(=O)/C=C/c2ccccc2Cl)cc1OCCN1CCC(N2CCN(C)CC2)CC1 | 19
O=C(NC(=S)Nc1cc(C(F)(F)F)cc(C(F)(F)F)c1)c1ccc(Cl)cc1 | 31
COc1ccc(C(=O)N2CCC3(CC2)C(=O)N(CC(=O)NC2CCCCC2)CN3c2ccccc2)c(OC)c1 | 4
CCN(CCCN1CCCCC1)c1cc(C)nc(Nc2ccc(C(C)C)cc2)n1.O=C(O)C(F)(F)F | 34
CS(=O)(=O)Cc1ccc(Nc2nccc(NC3CCN(c4nccc(C(F)(F)F)n4)CC3)n2)cc1 | 34
COc1ccc(N2CCN(CCc3ccc(NC(=O)c4ccc([N+](=O)[O-])cc4)cc3)CC2)c(OC)c1 | 45

Now for the compound whose Inhibition we want.
Problem: Form field - read-out: Inhibition; system: HepG2; submitted item: "O=C(Nc1nc(-c2ccccn2)cc2ccccc12)c1cccc(Cl)c1"
Result: 59
